test system: K4 kissing-loop RNA reporter; experiment: apparent KD of K4 kissing-loop reporter; higher = weaker reporter binding; conditions: Eterna round: R107; input ligand: arginine 13.2 mM
MEASURED_PROPERTY: apparent KD of K4 kissing-loop reporter (nM)
Give just the number in nM; leave the unit off.

Q. Could you tell me which apparent KD of K4 kissing-loop reporter is on file for CGGCGGAGUGAUGUUCCACCUACUGCGGAUACCAGCUUUGCCAGAGGCCCUUGGCAGCCGCACGGCUCAGUGAUGUUGGGUUGCG [Same State Theophylline A G12] ?
A. 162

* * *

test system: MS2 coat protein; assay: apparent KD of MS2 coat protein; designed switch direction (-1 OFF switch, 1 ON switch): -1; higher = weaker reporter binding; conditions: input ligand: none
MEASURED_PROPERTY: apparent KD of MS2 coat protein (nM)
The reply should contain only the number, in nM.

Illustrative cases are given below, each with its answer.
Q. Enter reported apparent KD of MS2 coat protein observed with MS2 coat protein for AUAAAGAACUCAGGAUAUUAGAGAAACGGACAUGAGGAUCACCCAUGUGCGCCUGAUGCCGAGAAUAAGAAGGGAGAAUAGAAA [Rearbi] (Eterna round: R96, puzzle: Exclusion NG 2)
A. 27.4

Q. So what apparent KD of MS2 coat protein did GACAUCGCAGGAUAUUAGGGUUUGUACAUGAGGAUCACCCAUGUUAAUUGGGUUAAUGUUUAAGAAGGGCGGUGUC [JR_EX5_Sub017] (Eterna round: R97, puzzle: Exclusion 5) get with MS2 coat protein?
A. 383

Next:
Q. # returns recorded apparent KD of MS2 coat protein (system: MS2 coat protein) for UGCGUGUGAGGAUAUGCGCGUGGCGAUCUUAAGUUACGCAAGCAGAAGGCACAUGAGGAUCACCCAUGUGGCCA [Eternabot (L1) Solution 20] (Eterna round: R97, puzzle: Exclusion 4)
A. 20.3

* * *

tested on: K4 kissing-loop RNA reporter; experiment: apparent KD of K4 kissing-loop reporter; higher = weaker reporter binding; conditions: Eterna round: R107; input ligand: FMN 200 uM
MEASURED_PROPERTY: apparent KD of K4 kissing-loop reporter
Just so you know, I need the unit written after the number.

Q. Report apparent KD of K4 kissing-loop reporter for UGUCAUUGGUCGGCCGCCACUACAAGGUCAAAGACCAAAGAGUGAUGUUCUUAGACGAAAGUCAGUAGGACCGGGACCGAUGACU [TrypBS 8 #SwitchBubble #K4Middle] tested on K4 kissing-loop RNA reporter.
A. 1.05 µM

Q. Lab note: need apparent KD of K4 kissing-loop reporter with K4 kissing-loop RNA reporter for entry UGAUUGGCGAAAGUAGUGAUGUUACGAAUAUAGGAUAUUAGAGGAAUAAGAAGGAUAAAGGAGAAAUAGGUAAAUUGUUGGUUGG [whbob_SS_FMNA__2th169] , please look it up.
A. 0.11 µM

Q. Field: apparent KD of K4 kissing-loop reporter (K4 kissing-loop RNA reporter). Entry: CAUUCUAUAUGCAGUGAUGUUGCAACUGAUACCAGUAUCGAAAGAUACCCUUGGCAGCGGAAAACCGCUACGUAAUUUAAGAAUG [Ex Theophylline A K4 22]
A. 0.375 µM

Q. Provide the documented apparent KD of K4 kissing-loop reporter with K4 kissing-loop RNA reporter as the system for UAUGAAGGUGGAGGAUAUUGAUUGAAUCUUGGUCUGGAGUGAUGUUCCGGGAAGCCUUGGAUUCAUCGAGAAGGCCAAGGAUAGU [Extra 1]
A. 0.123 µM

Q. Value wanted: apparent KD of K4 kissing-loop reporter (K4 kissing-loop RNA reporter) of entry UUUUAAAUGUCUGAUACCAGAGAAAAUAUAUGUAGUGAUGUUAUAUACAAAUUUAAUAAGCUCCCUUGGCAGCAGUAUGAAUUUU [AstrosExc-TheB#12]
A. 0.616 µM

Further cases:
Q. // fetch K4 kissing-loop RNA reporter apparent KD of K4 kissing-loop reporter for AAGCCAUACUCGGCCGCCACUUACUUCGUUGCAGUGAUGUUGCACACGAAUCCGUCAUAGCAAAUAAGGACCGGGAGAUAUACCG [theeternabot_exclusion_KL_Trp_B_19]
A. 0.0893 µM

Q. Request - read-out apparent KD of K4 kissing-loop reporter | tested on K4 kissing-loop RNA reporter | sequence GGAUAGGACAGAGGAUAUGGUAGUGAUGUUACCAAACUGGUUACUCUUGUCAGAAAACUGGCAUCUCCAGAAGGCUGUCCUAUCG [KL-XFMN-B10]
A. 0.594 µM

Q. Request body: readout apparent KD of K4 kissing-loop reporter, system K4 kissing-loop RNA reporter, query GCCGUAGAUUGAAGGAGCGCCGCGCAUGUCCCGCUUAGUGUAGUGAUGUUACAGUUUCAGCGGCAGGUAGGUCGCAAUCUACGGC . Return the value.
A. 0.0834 µM

Q. Form: Entry = AAGCAGUCACUCGACACCAUCGAAGAUGGGCGAGGACCGGUACGGCCGCCACUCGGAGUGAUGUUCUGAUGACUGCAAAAUAAAA [MatMod 9 - Jieux - Exclusion - Tryptophan A] | System = K4 kissing-loop RNA reporter | apparent KD of K4 kissing-loop reporter = ____
A. 0.0999 µM

Q. Recorded apparent KD of K4 kissing-loop reporter for UAAGAAUAAGAUGCAGUGAUGUUGCAUCUACGAGGACCGGUACGGCCGCCACUCGAGGUCCUCGAACUGCAUCAGAGGACAAUAA [(H,1)-(H,2)-(Trp1)-(Trp2)-(T)'-(H)'-(T)''] with K4 kissing-loop RNA reporter, please?
A. 0.253 µM

Q. Param readout= apparent KD of K4 kissing-loop reporter; system= K4 kissing-loop RNA reporter; entry= UUCGUCGCGCAUGAUACCAGCGAGAUUUAACGCCGAAUCCUCACGCAGUGAUGUUGCACCCGCCCUUGGCAGCAUAGCCGGUUAC [theeternabot_sameState_KL_Theo_B_13] ; returns value.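 Also: bound reporter read as fluorescence of individual clusters on recovered sequencing chips by microscopy, with normalized cluster intensities fitted with a binding model.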
A. 0.25 µM

Q. Short answer please: apparent KD of K4 kissing-loop reporter, K4 kissing-loop RNA reporter, entry UGUACCGAGUCAGGAUAUGGCGUCGAAAGACGAAUGCUAGUGAUGUUAGGGAUCUGCGAAAGCAGUUCAGAAGGGACUUGGUACU [FmnBS 26 G36+U67]
A. 0.275 µM
